- SYSTEM TESTED: T1, IL-26 (Homo sapiens, UniProt Q9NPH9)
- T1 sequence (Q9NPH9 22-171): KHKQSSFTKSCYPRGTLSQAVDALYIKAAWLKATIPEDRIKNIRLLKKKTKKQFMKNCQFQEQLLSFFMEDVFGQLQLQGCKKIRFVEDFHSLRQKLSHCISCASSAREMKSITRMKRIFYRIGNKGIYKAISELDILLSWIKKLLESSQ
- PROTOCOL: ELISA of antigen binding to human IL-26
- Parameters: purchased R&D Systems 1375-IL/CF
- CONDITION SET: plates coated with 0.5 μg/ml human IL-26 monomer; calculated using GraphPadPrism
MEASUREMENT LABEL: EC50 values (binding to human IL-26, ELISA) (µg/mL)
Response body: numeric value in µg/mL, unit text excluded.

Lookup: So what does the record say about EC50 values (binding to human IL-26, ELISA) for Hu69-10B-IgG1: humanized 69-10 IgG1/kappa antibody expressed by pHu69-10B (Hu69-10VH1 and Hu69-10VL2) (antibody, V domains shown) VH: QVTLKESGPALVKPTQTLTLTCTFSGFSLSTSGMGVGWIRQPPGKALEWLAHIWWDDDKYYNPSLKSQLTISKDTSKNQVVLTMTNMDPVDTATYYCVRGGITATHYYAMDYWGQGTTVTVSS VL: DIQMTQSPSSLSASVGDRVTITCLASQTIGTWLSWYQQKPGKAPKLLIYAATSLADGVPSRFSGSGSGTDFTFTISSLQPEDIATYYCQQLYSSPWTFGGGTKVEIK ?
Found: 0.396

Lookup: Reported EC50 values (binding to human IL-26, ELISA), molecule Hu69-10A-IgG1: humanized 69-10 IgG1/kappa antibody expressed by pHu69-10A (Hu69-10VH1 and Hu69-10VL1) (antibody, V domains shown) VH: QVTLKESGPALVKPTQTLTLTCTFSGFSLSTSGMGVGWIRQPPGKALEWLAHIWWDDDKYYNPSLKSQLTISKDTSKNQVVLTMTNMDPVDTATYYCVRGGITATHYYAMDYWGQGTTVTVSS VL: DIQMTQSPSSLSASVGDRVTITCLASQTIGTWLSWYQQKPGKAPKLLIYAATSLADGVPSRFSGSGSGTKFTFTISSLQPEDIATYYCQQLYSSPWTFGGGTKVEIK : ____
Found: 0.304

Lookup: What value of EC50 values (binding to human IL-26, ELISA) has been recorded for this entry: Ch69-10-IgG1: chimeric 69-10 IgG1/kappa antibody with mouse 69-10 VH and VL and human constant regions (antibody, V domains shown) VH: QVTLKESGPGILKPSQTLSLTCSFSGFSLSTSGMGVGWIRQPSGKGLEWLAHIWWDDDKYYNPSLKSQLTISKDTSRNQVFLKITSVDTADTATYYCVRGGITATHYYAMDYWGQGTSVTVSS VL: DIQMTQSPASQSASLGESVTISCLASQTIGTWLSWYQQKPGKSPQLLIYAATSLADGVPSRFSGSGSGTKFSFKISSLQAEDFVSYYCQQLYSSPWTFGGGTKLEIK
Found: 0.299
